system_name: TcCA
measurement_context: read-out: FAM; Hepes pH 7.5, 0.1 M Na2SO4, 25 °C; 15 min pre-incubation
metric: Ki (µM)
Numbers only, in µM.

Short answer for NC(N)=Nc1nc(CSCCC(N)=NS(N)(=O)=O)cs1 [FAM, Famotidine] : Ki was 5.71

* * *

system_name: BpsCAβ (Burkholderia pseudomallei)
Sequence (Q63Y17 1-256): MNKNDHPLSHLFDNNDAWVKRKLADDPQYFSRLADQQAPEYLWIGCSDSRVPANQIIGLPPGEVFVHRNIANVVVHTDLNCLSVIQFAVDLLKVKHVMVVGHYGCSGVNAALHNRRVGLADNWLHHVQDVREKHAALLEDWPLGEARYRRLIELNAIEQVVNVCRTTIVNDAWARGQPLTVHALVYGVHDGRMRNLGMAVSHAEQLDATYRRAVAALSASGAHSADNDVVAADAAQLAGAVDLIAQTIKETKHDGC
measurement_context: read-out: FAM
metric: Ki (µM)
Numbers only, in µM.

Short answer for NC(N)=Nc1nc(CSCCC(N)=NS(N)(=O)=O)cs1 [FAM, Famotidine] : Ki was 8.27

* * *

system_name: PfCA (Plasmodium falciparum, UniProt Q8IHW5)
Sequence (Q8IHW5 entry or part of it): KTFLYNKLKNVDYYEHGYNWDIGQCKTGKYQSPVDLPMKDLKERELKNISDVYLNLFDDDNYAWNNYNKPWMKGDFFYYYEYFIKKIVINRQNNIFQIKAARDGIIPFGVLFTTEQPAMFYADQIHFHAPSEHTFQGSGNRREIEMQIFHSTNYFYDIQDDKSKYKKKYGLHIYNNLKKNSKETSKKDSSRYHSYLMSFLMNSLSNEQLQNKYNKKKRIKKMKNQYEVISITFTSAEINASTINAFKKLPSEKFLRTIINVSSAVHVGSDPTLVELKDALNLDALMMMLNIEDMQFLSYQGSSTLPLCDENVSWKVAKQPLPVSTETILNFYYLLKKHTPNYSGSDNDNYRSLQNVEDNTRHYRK
metric: pKi
Give bare numbers, as −log10 of the molar value.

Short answer for NC(N)=Nc1nc(CSCCC(N)=NS(N)(=O)=O)cs1 [FAM, Famotidine] : pKi was 6.85

* * *

system_name: UniProtKB C1DTU5
Sequence (C1DTU5 entry or part of it): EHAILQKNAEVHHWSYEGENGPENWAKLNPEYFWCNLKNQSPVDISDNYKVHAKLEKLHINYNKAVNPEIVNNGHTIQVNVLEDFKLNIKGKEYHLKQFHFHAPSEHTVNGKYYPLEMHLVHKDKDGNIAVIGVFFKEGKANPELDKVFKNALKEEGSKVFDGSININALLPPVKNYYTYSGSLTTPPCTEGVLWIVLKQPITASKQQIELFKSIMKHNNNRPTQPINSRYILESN
metric: pKi
Numbers only, as −log10 of the molar value.

Short answer for NC(N)=Nc1nc(CSCCC(N)=NS(N)(=O)=O)cs1 [FAM, Famotidine] : pKi was 6.91

* * *

system_name: CpsCAγ
Sequence (UPI00051A3E8B entry or part of it): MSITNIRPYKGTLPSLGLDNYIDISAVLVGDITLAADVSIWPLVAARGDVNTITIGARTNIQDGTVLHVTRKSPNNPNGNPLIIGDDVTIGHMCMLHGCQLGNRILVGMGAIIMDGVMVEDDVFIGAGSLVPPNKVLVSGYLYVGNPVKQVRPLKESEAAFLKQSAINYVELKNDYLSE
measurement_context: read-out: FAM; TRIS pH 8.3, 0.1 M Na2SO4, 25 °C; 15 min pre-incubation
metric: Ki (nM)
Give bare numbers, in nM.

Short answer for NC(N)=Nc1nc(CSCCC(N)=NS(N)(=O)=O)cs1 : Ki was 89

* * *

system_name: PhaCAγ
Construct: gene PhaCA
measurement_context: read-out: FAM; TRIS pH 8.3, 0.1 M Na2SO4, 25 °C; 15 min pre-incubation
metric: Ki (nM)
One number for each entry, in nM.

Item: NC(N)=Nc1nc(CSCCC(N)=NS(N)(=O)=O)cs1 | System: PhaCAγ | Ki: 66.8

* * *

system_name: VchCAα (Vibrio cholerae)
Sequence (Q9KMP6 21-239 limits assumed): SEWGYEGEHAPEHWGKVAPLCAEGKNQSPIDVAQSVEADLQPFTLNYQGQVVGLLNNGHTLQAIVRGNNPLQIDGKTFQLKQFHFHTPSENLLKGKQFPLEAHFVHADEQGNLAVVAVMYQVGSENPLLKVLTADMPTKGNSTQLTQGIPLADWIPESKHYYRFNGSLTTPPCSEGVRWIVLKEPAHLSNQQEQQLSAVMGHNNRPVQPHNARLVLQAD
metric: Ki (µM)
Numbers only, in µM.

Item: NC(N)=Nc1nc(CSCCC(N)=NS(N)(=O)=O)cs1 [FAM, Famotidine] | System: VchCAα (Vibrio cholerae) | Ki: 0.0723

* * *

system_name: TweCAδ (Conticribra weissflogii)
Sequence (Q5U9J1 entry or part of it): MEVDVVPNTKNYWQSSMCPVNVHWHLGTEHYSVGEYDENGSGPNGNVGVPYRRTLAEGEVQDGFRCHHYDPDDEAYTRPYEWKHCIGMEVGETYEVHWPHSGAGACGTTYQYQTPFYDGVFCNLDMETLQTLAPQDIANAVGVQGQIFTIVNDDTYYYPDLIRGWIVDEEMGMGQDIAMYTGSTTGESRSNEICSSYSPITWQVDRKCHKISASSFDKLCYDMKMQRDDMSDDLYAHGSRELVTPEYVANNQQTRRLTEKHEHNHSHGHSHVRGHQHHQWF
metric: pKi
One number for each entry, as −log10 of the molar value.

Short answer for NC(N)=Nc1nc(CSCCC(N)=NS(N)(=O)=O)cs1 : pKi was 6.39

* * *

system_name: Can2 (Cryptococcus neoformans)
Sequence (Q3I4V7 entry or part of it): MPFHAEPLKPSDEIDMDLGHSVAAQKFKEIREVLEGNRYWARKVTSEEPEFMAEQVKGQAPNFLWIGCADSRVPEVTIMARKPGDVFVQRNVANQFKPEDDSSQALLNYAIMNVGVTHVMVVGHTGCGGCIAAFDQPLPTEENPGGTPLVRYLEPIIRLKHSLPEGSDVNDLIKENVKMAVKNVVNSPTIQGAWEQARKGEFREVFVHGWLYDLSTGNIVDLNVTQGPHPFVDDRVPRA
metric: pKi
Answers are plain numbers, as −log10 of the molar value.

Short answer for NC(N)=Nc1nc(CSCCC(N)=NS(N)(=O)=O)cs1 [FAM, Famotidine] : pKi was 6.97

* * *

system_name: BpsCAγ
measurement_context: read-out: FAM
metric: Ki (µM)
Numbers only, in µM.

Short answer for NC(N)=Nc1nc(CSCCC(N)=NS(N)(=O)=O)cs1 : Ki was 8.29

* * *

system_name: NcoCAγ (Nostoc commune)
Construct: gene NIES4072_30780
Sequence (A0A2R5FUA4 entry or part of it): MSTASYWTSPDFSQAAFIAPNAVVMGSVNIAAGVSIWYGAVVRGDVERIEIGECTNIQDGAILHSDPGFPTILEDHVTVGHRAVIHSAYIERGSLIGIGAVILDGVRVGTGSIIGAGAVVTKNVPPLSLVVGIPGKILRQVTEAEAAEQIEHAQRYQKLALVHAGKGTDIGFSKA
Format: biochemical
measurement_context: TRIS pH 8.3, 0.1 M Na2SO4, 25 °C; 15 min pre-incubation; read-out: FAM
metric: pKi
Numbers only, as −log10 of the molar value.

Short answer for NC(N)=Nc1nc(CSCCC(N)=NS(N)(=O)=O)cs1 : pKi was 5.77

* * *

system_name: VchCAγ (Vibrio cholerae, UniProt Q9KVT1)
Sequence (Q9KVT1 1-184): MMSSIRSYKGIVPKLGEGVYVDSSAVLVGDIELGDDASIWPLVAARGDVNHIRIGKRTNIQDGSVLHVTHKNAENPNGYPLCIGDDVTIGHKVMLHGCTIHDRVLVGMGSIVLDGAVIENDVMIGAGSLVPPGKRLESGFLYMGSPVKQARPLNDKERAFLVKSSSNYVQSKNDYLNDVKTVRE
metric: pKi
Answers are plain numbers, as −log10 of the molar value.

Short answer for NC(N)=Nc1nc(CSCCC(N)=NS(N)(=O)=O)cs1 : pKi was 5.27
